# Tested on: A. baumannii (BAA 747)
# Type: cell-based, Acinetobacter baumanni
# Conditions used: BAA 747, 24 h
Where no end group is shown, it is not given here.
Readout name: MBC

# count of solved cases: 4
Substance | MBC
FLSLIPKAIKAVKALAKKL-NH2 [SR2] | 2/2 μM
FLSLIPKAISAVSALAKKL-NH2 [Peptide 18K] | 32/32 μM
FLSLIPKAISAVSALAKHL-NH2 [Peptide 7K] | >128 µM
FLSLIPHAISAVSALAKHL-NH2 [PSTO2, phylloseptin-TO2] | >128 µM

The substance listed as FLSLIPKAIKAVSALAKKL-NH2 [SR] shows MBC equal to 4/4 μM

----------
# Test system: K. pneumonia (ATCC 43816)
# Format: cell-based, Klebsiella pneumonia
# Conditions used: ATCC 43816, 24 h
Where no end group is shown, it is not given here.
Readout name: MBC (µM)
State just the number; it will be interpreted in µM.

Substance | Test result
FLSLIPHAISAVSALAKHL-NH2 [PSTO2, phylloseptin-TO2] | 128
FLSLIPKAIKAVSALAKKL-NH2 [SR] | 2

The substance listed as FLSLIPKAIKAVKALAKKL-NH2 [SR2] shows MBC equal to 2

----------
# System: MRSA (NCTC 12493)
# Assay type: cell-based, methicillin-resistant Staphylococcus aureus
# Conditions used: NCTC 12493, 24 h
# Method: […] After being incubated for 24 h, a Synergy HT plate reader (Bio-Tek, Shoreline, WA, USA) was used to detect the absorbance of each well in the 96-well plate at λ = 550 nm. The concentration at which no visible turbidity could be recorded was the MIC value. […] The plate was checked the next day for colony formation, and the lowest concentration at which no colony growing was recorded as an MBC value.
Where no end group is shown, it is not given here.
Readout name: MIC (µM)
State just the number; it will be interpreted in µM.

# count of solved cases: 3
Substance | MIC, µM
FLSLIPKAISAVSALAKHL-NH2 [Peptide 7K] | 4
FLSLIPKAIKAVSALAKKL-NH2 [SR] | 2
FLSLIPKAISAVSALAKKL-NH2 [Peptide 18K] | 4

Consider the record given below.
The substance listed as FLSLIPKAIKAVKALAKKL-NH2 [SR2] shows MIC equal to 2

----------
MBC by entry:
# Tested on: P. aeruginosa (ATCC 9027)
# Type: cell-based, Pseudomonas aeruginosa
# Conditions used: ATCC 9027, 24 h
Where no end group is shown, it is not given here.
State just the number; it will be interpreted in µM.

# count of solved cases: 3
Substance | MBC [µM]
FLSLIPKAIKAVSALAKKL-NH2 [SR] | 32
FLSLIPKAISAVSALAKKL-NH2 [Peptide 18K] | 64
FLSLIPKAIKAVKALAKKL-NH2 [SR2] | 32

Consider the record given below.
Form: item FLSLIPKAISAVSALAKHL-NH2 [Peptide 7K] ; test system P. aeruginosa (ATCC 9027); MBC: 32

----------
HC10 by entry:
# Tested on: horse red blood cells
# Type: cell-based
Where no end group is shown, it is not given here.
Give only the figure.

# count of solved cases: 4
Substance | System | HC10
FLSLIPKAISAVSALAKHL-NH2 [Peptide 7K] | horse red blood cells | 21.97
FLSLIPKAIKAVSALAKKL-NH2 [SR] | horse red blood cells | 12.60
FLSLIPKAIKAVKALAKKL-NH2 [SR2] | horse red blood cells | 6.53
FLSLIPKAISAVSALAKKL-NH2 [Peptide 18K] | horse red blood cells | 20.59

Consider the record given below.
Form: item FLSLIPHAISAVSALAKHL-NH2 [PSTO2, phylloseptin-TO2] ; test system horse red blood cells; HC10: 21.78

meta.source: paper PMC11360180
